tested on: K. pneumoniae; test: AK assay 384-well format, Prestwick library screening; assay type: cell-based, Klebsiella pneumoniae; details: Klebsiella pneumoniae, 3 h; 50 μM final drug concentration; planktonic; cutoff for positive-scoring molecules 3-fold increase; read-out: AK-based Prestwick Library Screening Results, K. pneumoniae (fold increase in extracellular AK activity)
Counter-ions that a name gives are not always drawn.
Reported fold induction at 50 µM values for the following molecules.
Hey, just send me the number, nothing else.

Examples with answers:
molecule	attribute.measured	measurement
Nc1ccc(S(=O)(=O)Nc2cnc3ccccc3n2)cc1 [Sulfaquinoxaline sodium salt]	fold induction at 50 µM	0.6
C[N+]1(C)[C@@H]2CC[C@H]1C[C@@H](OC(=O)C(CO)c1ccccc1)C2 (some centres unmarked) [Methylatropine nitrate]	fold induction at 50 µM	0.6
Oc1ccc(OCc2ccccc2)cc1 [Monobenzone]	fold induction at 50 µM	0.5

stdin: Fill in the blank: the reported fold induction at 50 µM of CC(C)(C)NCC(O)COc1cccc2c1CC(O)C(O)C2 (centres unmarked) [Nadolol] is ____.
stdout: 0.6

stdin: Fill in the blank: the reported fold induction at 50 µM of C[N+]1(C)CCCC(OC(=O)C(O)(c2ccccc2)c2ccccc2)C1 (centres unmarked) [Mepenzolate bromide] is ____.
stdout: 0.6

stdin: Fill in the blank: the reported fold induction at 50 µM of CCS(=O)(=O)CCn1c([N+](=O)[O-])cnc1C [Tinidazole] is ____.
stdout: 0.8

stdin: Fill in the blank: the reported fold induction at 50 µM of CO[C@@]1(NC(=O)Cc2cccs2)C(=O)N2C(C(=O)O)=C(COC(N)=O)CS[C@@H]21 [Cefoxitin sodium salt] is ____.
stdout: 3.2

stdin: Fill in the blank: the reported fold induction at 50 µM of Cc1nnc(SCC2=C(C(=O)O)N3C(=O)[C@@H](NC(=O)Cn4cnnn4)[C@H]3SC2)s1 [Cefazolin sodium salt] is ____.
stdout: 3.6

stdin: Fill in the blank: the reported fold induction at 50 µM of CC(C(=O)O)c1ccc(-c2ccccc2)c(F)c1 (centres unmarked) [Flurbiprofen] is ____.
stdout: 0.7
